Provenance of the data: ChEMBL document CHEMBL4627319

test system: Rattus norvegicus; assay: Antiinflammatory activity in albino rat assessed as reduction in carrageenan-induced paw edema by measuring thickness of right paw at 28 uM/kg, ip measured at 2 hrs by calliper method (reference value: 7.67 +/- 0.17 cm); type: functional
# reported Activity; entries follow

Please review the following examples before continuing.
1) COc1ccc2c(c1)c(CC(=O)O)c(C)n2C(=O)c1ccc(Cl)cc1 [INDOMETHACIN] = 4.67 cm
2) CSc1nc2ccccc2n1-c1csc(NC/C(C)=N/NC(=S)Nc2ccccc2)n1 = 4.67 cm

Qu. // Activity lookup, key: CSc1nc2ccccc2n1-c1csc(NC/C(C)=N/N=C2\SCC(=O)N2c2ccccc2)n1
Ans. 4.17 cm

Qu. Param item = CSc1nc2ccccc2n1-c1csc(NC/C(C)=N/N=c2\scc(-c3ccc(Cl)cc3)n2-c2ccccc2)n1 ; retrieve measured Activity.
Ans. 5 cm
